All figures here come from ChEMBL document CHEMBL3351718.

Parameter IC50, tested on Mast/stem cell growth factor receptor Kit (Homo sapiens, UniProt P10721), listed per item.
Sequence (P10721 whole entry): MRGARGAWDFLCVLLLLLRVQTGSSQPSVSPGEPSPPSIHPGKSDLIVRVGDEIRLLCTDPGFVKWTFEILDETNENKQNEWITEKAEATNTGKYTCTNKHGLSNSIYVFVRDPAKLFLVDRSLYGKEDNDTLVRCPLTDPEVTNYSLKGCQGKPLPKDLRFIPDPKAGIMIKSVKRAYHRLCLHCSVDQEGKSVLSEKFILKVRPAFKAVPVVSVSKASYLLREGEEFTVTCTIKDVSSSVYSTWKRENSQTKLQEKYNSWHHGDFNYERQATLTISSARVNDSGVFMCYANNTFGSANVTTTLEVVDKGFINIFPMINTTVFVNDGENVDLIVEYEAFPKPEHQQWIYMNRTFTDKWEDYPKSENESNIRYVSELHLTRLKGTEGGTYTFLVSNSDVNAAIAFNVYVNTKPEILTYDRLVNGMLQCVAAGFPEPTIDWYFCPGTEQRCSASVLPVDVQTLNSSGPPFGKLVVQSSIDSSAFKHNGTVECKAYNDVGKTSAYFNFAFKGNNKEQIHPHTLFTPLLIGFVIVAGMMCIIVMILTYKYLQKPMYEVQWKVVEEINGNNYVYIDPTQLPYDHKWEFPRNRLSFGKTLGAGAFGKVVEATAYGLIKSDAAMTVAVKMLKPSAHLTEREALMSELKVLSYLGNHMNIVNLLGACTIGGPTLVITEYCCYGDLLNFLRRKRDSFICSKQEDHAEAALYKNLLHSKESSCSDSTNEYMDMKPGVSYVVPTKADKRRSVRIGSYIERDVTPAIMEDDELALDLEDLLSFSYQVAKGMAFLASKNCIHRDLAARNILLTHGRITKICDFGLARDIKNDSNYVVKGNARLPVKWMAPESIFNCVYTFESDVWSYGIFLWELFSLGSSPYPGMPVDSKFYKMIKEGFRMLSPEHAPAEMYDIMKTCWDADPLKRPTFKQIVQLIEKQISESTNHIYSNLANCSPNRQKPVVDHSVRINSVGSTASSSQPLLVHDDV

COc1cc(=O)n(-c2ccc(Oc3ccnc(N)c3Cl)c(F)c2)cc1C(=O)NCc1ccc(F)cc1	> 25 µM

Query block: Field request: IC50 | item: COc1cc(=O)n(-c2ccc(Oc3ccnc(N)c3I)c(F)c2)cc1C(=O)NCc1ccc(F)cc1
Result block: > 25 µM

====

# measured.target: Vascular endothelial growth factor receptor 2 (Homo sapiens, UniProt P35968)
# Sequence (P35968 whole entry, the tested form may be a part): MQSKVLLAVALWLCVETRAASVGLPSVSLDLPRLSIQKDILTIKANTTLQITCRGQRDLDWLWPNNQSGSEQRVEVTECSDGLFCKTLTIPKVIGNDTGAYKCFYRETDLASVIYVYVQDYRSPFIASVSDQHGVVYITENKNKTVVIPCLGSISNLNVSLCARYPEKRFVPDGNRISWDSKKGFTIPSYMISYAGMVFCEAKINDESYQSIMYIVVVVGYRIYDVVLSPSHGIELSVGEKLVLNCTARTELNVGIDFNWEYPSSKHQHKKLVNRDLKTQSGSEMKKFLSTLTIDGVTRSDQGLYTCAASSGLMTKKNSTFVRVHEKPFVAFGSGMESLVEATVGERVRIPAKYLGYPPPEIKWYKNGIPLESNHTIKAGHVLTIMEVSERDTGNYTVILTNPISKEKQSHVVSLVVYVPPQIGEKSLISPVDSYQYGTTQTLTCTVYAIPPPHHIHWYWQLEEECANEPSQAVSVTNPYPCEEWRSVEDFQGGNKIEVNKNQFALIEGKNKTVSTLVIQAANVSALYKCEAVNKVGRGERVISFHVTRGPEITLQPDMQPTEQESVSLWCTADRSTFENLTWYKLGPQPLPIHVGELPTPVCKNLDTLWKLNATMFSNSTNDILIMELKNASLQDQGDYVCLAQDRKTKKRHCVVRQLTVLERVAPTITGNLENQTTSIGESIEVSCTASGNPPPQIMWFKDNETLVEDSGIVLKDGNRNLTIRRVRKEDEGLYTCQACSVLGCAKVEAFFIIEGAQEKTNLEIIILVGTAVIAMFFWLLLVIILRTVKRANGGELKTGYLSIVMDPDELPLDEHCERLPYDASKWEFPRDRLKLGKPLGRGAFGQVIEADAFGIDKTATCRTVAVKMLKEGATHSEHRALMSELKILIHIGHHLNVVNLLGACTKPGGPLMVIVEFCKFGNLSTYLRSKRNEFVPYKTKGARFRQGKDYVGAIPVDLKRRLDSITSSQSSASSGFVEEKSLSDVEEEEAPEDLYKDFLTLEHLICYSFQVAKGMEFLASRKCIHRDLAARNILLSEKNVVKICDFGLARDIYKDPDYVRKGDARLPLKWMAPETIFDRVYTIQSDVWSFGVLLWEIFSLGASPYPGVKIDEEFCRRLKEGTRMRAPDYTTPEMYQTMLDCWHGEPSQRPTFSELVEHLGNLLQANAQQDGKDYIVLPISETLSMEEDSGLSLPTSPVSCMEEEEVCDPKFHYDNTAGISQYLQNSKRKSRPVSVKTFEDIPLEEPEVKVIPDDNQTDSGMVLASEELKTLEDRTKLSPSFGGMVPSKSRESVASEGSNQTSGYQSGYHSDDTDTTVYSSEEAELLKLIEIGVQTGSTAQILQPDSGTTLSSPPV
# run.description: Inhibition of recombinant VEGFR2 kinase domain (unknown origin)
pIC50: −log10 of the molar value.
endpoint.label: pIC50

In the examples that follow, each entry is paired with its recorded pIC50.
COc1cc(=O)n(-c2ccc(Oc3ccnc(N)c3Cl)c(F)c2)cc1C(=O)NCc1ccc(F)cc1	< 4.60
Nc1nccc(Oc2ccc(-n3cc(C(=O)NCc4ccc(F)cc4)ccc3=O)cc2F)c1Cl	< 4.60

Okay, now this molecule:
Query block: Field request: pIC50 | item: COc1cc(=O)n(-c2ccc(Oc3ccnc(N)c3I)c(F)c2)cc1C(=O)NCc1ccc(F)cc1
Result block: < 4.60
